Kindly supply the reported cell viability values for the records listed here.
System: P12-Ichikawa
Assay: cell viability relative to DMSO control; higher = less cytotoxic
Details: HPLM + 10% dialyzed FBS; 48 h; 15.4 µM
One number for each entry, in %.

For orientation, consider the following solved cases.
CC(=O)SC[C@@H](C)C(=O)N1CCC[C@H]1C(=O)N[C@@H](Cc1ccccc1)C(=O)O | 101
Cc1cn2cc(C(=O)N(C)CCO)cc(N[C@@H]3CCOc4cccc(C)c43)c2n1 | 110

Would you kindly look at the next entry?
Entry under review: "CCOC(=O)c1c(C)n(C)c2ccc(O)cc12" . Reported cell viability?
109
